System: Eleusine indica (ELEIN)
Test: Post-emergence efficacy, glasshouse spray test
Format: in vivo
Details: Eleusine indica, post-emergence, 312 h; application rate 1000 g/Ha; evaluated after 13 days; read-out: Control of weed species ELEIN after post-emergence application (100=total damage to plant; 0=no damage to plant)
Measure name: pest or weed control at 1000 g/ha (%)
Numbers only, in %.

{"columns": ["Compound", "Assay system", "pest or weed control at 1000 g/ha, %"],
 "data": [
  ["N[C@@H](C[n+]1ccc2ccccc2n1)C(=O)[O-] [Compound A23, 2,2,2-trifluoroacetate]", "Eleusine indica (ELEIN)", 20],
  ["O=C(O)c1cccc(C[n+]2ccc3ccccc3n2)c1 [Compound A91]", "Eleusine indica (ELEIN)", 20]
]}

## Task Name the reported pest or weed control at 1000 g/ha value associated with the compound O=S(=O)([O-])OCC[n+]1nc2ccccc2cc1Cl [Compound A111]
## Result 20
